Target: human CB2 receptors (Homo sapiens (Human), UniProt P34972)
Sequence (P34972 whole entry): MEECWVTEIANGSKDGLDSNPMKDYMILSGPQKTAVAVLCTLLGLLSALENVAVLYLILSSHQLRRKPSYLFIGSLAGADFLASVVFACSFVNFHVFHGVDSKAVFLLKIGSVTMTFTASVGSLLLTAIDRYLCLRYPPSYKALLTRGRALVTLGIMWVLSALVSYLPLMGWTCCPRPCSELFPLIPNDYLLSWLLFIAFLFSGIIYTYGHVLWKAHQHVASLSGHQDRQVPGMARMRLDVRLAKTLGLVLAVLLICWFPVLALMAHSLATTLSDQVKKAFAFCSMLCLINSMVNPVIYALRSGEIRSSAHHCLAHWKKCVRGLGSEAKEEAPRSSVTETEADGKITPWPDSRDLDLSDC
Assay: functional cAMP assay, CHO cells expressing human CB2 receptors
Experimental: CHO cells expressing human CB1 or CB2 receptors are seeded 17-24 hours prior to the experiment 50.000 cells per well in a black 96 well plate with flat clear bottom (Corning Costar #3904) in DMEM (Invitrogen No. 31331), 1×HT supplement, with 10% fetal calf serum and incubated at 5% CO2 and 37° C. in a humidified incubator. […] The time-resolved energy transfer is measured by a TRF reader (Evotec Technologies GmbH), equipped with a ND:YAG laser as excitation source. […]
Measured pEC50, listed per entry for reference.
Quick note: pEC50 values are minus log10 of concentrations in mol/L.

CC1(C)C[C@@H](C(N)=O)N(C(=O)c2ccc(N3CC(F)(F)C3)c(OCC3CC3)n2)C1 :: 8.92
O=C(c1ccc(N2CC(F)(F)C2)c(OCC2CC2)n1)N1CCCC12COC2 :: 6.67
COC[C@H]1CCCN1C(=O)c1ccc(N2CC(F)(F)C2)c(OCC2CC2)n1 :: 6.44

The record that follows has no pEC50 shown yet.
Incoming: What does the data say about its pEC50? Entry: `NC(=O)[C@@H]1CC(F)(F)CN1C(=O)c1ccc(C2CC2)c(Cc2ccc(F)cc2)n1`
Outgoing: 9.70

* * *

Measured EC50, listed per entry for reference.
target: human CB2 receptors (Homo sapiens (Human), UniProt P34972); assay: functional cAMP assay, CHO cells expressing human CB2 receptors; format: cell-based
Please state the figure in nM; there is no need to write the unit.

Incoming: What does the data say about its EC50? Entry: CC(C)(C)OC(=O)N1CCC2(CCCN2C(=O)c2ccc(N3CC(F)(F)C3)c(OCC3CC3)n2)CC1 [Example 74]
Outgoing: 11.5

Incoming: What does the data say about its EC50? Entry: CC1(C)CCCN1C(=O)c1ccc(C2CC2)c(OCC(F)(F)C(F)(F)F)n1 [Example 84]
Outgoing: 18.9

Incoming: What does the data say about its EC50? Entry: O=C(c1ccc(C2CC2)c(OCC2CC2)n1)N1CC(O)(C(F)(F)F)C1 [Example 144]
Outgoing: 73

Incoming: What does the data say about its EC50? Entry: NC(=O)[C@@H]1CCCCN1C(=O)c1ccc(C2CC2)c(OCC2CC2)n1 [Example 92]
Outgoing: 101

* * *

molecular target: human CB2 receptors (Homo sapiens (Human), UniProt P34972); assay: functional cAMP assay, CHO cells expressing human CB2 receptors
Measured log10 EC50, listed per entry for reference.
// do not treat as linear: log10 of EC50, unit nM

NC(=O)[C@H]1CC(F)(F)CN1C(=O)c1ccc(C2CC2)c(OCC(F)(F)C(F)(F)F)n1 :: 2.89
Cc1cn(C)nc1N(C)C(=O)c1ccc(N2CC(F)(F)C2)c(OCC2CC2)n1 :: 2.66
NC(=O)[C@@H]1C[C@H](F)CN1C(=O)c1ccc(N2CC(F)(F)C2)c(OCC2CC2)n1 :: 2.53
CN(C(=O)c1ccc(C2CC2)c(Cc2ccc(F)cc2)n1)C(C)(C)C :: -0.10
CC1(C)CC(O)CCN1C(=O)c1ccc(N2CC(F)(F)C2)c(OCC2CC2)n1 (centres unmarked) :: 0.75
CCN(CCOC)C(=O)c1ccc(N2CC(F)(F)C2)c(OCC2CC2)n1 :: 2.15

Incoming: What does the data say about its log10 EC50? Entry: `NC(=O)[C@@H]1CS(=O)(=O)CN1C(=O)c1ccc(C2CC2)c(OCC2CC2)n1`
Outgoing: 0.86

Incoming: What does the data say about its log10 EC50? Entry: `CC1(C)COCN1C(=O)c1ccc(N2CC(F)(F)C2)c(OCC2CC2)n1`
Outgoing: 0.86
